Values were extracted from patent US12624004B2.

# System under test: δ opioid receptor (Homo sapiens, UniProt P41143)
# Construct: expressed in transfected cells; host or cells: CHO cells (membranes)
# Sequence (P41143 whole entry): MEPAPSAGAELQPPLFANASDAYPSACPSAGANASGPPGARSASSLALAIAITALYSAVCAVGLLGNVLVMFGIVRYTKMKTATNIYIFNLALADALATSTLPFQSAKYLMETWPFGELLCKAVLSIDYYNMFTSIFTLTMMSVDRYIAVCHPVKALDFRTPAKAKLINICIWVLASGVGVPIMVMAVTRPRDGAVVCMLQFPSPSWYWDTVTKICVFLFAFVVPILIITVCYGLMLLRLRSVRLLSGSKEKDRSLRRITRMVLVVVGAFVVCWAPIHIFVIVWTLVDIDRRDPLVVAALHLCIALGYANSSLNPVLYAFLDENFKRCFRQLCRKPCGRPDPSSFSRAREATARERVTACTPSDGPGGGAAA
# Experimental details: Competition binding assay on membranes of CHO cells expressing δ opioid receptor, [3H]-labeled ligand
pKi: −log10 of the molar value.
Property name: pKi

# input pKi lookup needed for COc1cccc(C2(O)CCN(S(=O)(=O)Cc3ccccc3)CC2CN(C)C)c1.Cl (stereo not shown) [FWBH6, hydrochloride] , thanks.
# output < 5.00

###

# System under test: μ opioid receptor (Homo sapiens, UniProt P35372)
# Construct: expressed in transfected cells; host or cells: CHO cells (membranes)
# Sequence (P35372 whole entry, species assumed): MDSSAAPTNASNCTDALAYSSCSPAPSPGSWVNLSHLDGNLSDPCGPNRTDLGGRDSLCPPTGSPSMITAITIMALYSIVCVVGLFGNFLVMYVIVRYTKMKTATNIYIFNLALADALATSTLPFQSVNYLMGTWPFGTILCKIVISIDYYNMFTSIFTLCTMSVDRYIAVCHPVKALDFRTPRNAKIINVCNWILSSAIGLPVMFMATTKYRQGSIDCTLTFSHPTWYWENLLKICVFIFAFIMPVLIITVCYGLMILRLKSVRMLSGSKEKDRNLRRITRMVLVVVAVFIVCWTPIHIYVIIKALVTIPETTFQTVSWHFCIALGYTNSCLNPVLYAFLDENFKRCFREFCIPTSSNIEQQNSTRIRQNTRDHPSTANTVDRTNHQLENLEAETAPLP
# Experimental details: Competition binding assay on membranes of CHO cells expressing μ opioid receptor, [3H]-labeled ligand
# Study conditions: Table 1-1; 10 μM concentration of compound; mean ± SD of three measurements; read-out: μOR Binding rate (%)
Counter-ions that a name gives are not always drawn.
Decide by inhibition at 10 µM: equal to or exceeding 80% means YES, less means NO.

COc1cccc(C2(O)CCCCC2CN(C)C)c1 (centres unmarked) [Tramadol, reference compound]; NO
COc1cccc(C2(O)CCC(NS(=O)(=O)c3cccs3)CC2CN(C)C)c1 (centres unmarked) [hydrochloride]; NO
COc1cccc(C2(O)CCC(S(=O)(=O)Cc3ccccc3)CC2CN(C)C)c1 (centres unmarked) [hydrochloride]; YES
COc1cccc(C2(O)CCC(N(Cc3ccccc3)S(=O)(=O)c3cccc(Cl)c3)CC2CN(C)C)c1 (centres unmarked); YES

Turning now to a further record.
# input Item COc1cccc(C2(O)CCC(N(C)S(=O)(=O)c3cccs3)CC2CN(C)C)c1 (centres unmarked) [hydrochloride] with inhibition at 10 µM of 80% or above?
# output NO
